Data provenance is patent EP4741383A1.

experimentalSystem: LYP (Homo sapiens, UniProt Q9Y2R2)
Construct: made in house; host or cells: E. coli
Sequence (Q9Y2R2 1-807): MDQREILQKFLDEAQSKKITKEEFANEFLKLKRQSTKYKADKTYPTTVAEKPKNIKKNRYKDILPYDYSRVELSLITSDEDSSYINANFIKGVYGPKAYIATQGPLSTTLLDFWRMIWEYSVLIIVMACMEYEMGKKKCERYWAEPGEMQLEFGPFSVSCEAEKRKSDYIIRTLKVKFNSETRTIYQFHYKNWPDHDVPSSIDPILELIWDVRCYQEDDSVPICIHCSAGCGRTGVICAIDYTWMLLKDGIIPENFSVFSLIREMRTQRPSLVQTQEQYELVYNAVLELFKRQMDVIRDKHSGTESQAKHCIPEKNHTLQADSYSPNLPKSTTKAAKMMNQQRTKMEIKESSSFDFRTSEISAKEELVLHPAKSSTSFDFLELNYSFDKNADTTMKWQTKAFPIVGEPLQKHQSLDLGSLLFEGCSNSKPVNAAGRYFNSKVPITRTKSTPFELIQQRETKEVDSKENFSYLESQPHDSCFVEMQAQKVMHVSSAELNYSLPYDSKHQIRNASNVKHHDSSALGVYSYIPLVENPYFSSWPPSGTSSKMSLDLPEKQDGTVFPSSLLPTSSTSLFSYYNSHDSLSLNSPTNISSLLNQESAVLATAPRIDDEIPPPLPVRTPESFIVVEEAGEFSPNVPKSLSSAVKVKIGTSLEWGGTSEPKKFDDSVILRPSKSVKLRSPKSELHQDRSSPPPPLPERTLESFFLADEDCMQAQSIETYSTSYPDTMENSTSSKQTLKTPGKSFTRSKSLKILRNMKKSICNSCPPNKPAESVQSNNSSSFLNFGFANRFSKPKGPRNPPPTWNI
experimentalProtocol: Tyrosine phosphatase selectivity (pNPP substrate), LYP
Format: biochemical
experimentalConditions: selectivity ratio LYP over SHP2
valueType: IC50PTP/IC50SHP2 LYP

# count of solved cases: 3
1) O=C(Nc1ccc(-c2ccsc2)cc1)C(=O)Nc1ccc(-c2cc3cnc(-c4nnn[nH]4)nc3n2C2CCC2)cc1 :: 19.2
2) O=C(Nc1ccc(-c2ccsc2)cc1)C(=O)Nc1ccc(-c2cc3cc(F)c(-c4nnn[nH]4)nc3n2C2CCC2)cc1 :: 18.5
3) O=C(Nc1ccc(-c2ccsc2)cc1)C(=O)Nc1ccc(-c2cc3ccc(-c4nnn[nH]4)nc3n2C2CCC2)cc1 :: 20.3

1: Cn1c(-c2cccc(NC(=O)C(=O)Nc3ccc(-c4ccsc4)cc3)c2)c(I)c2cc(C(=O)O)c(O)cc21 [Example 11a-1, reference compound]
2: Cn1cc(-c2ccc(NC(=O)C(=O)Nc3ccc(-c4cc5cc(F)c(-c6nnc(C(F)(F)F)[nH]6)cc5n4C4CCC4)cc3)cc2)cn1
3: O=C(Nc1ccc(-c2ccsc2)cc1)C(=O)Nc1ccc(-c2cc3cc(F)c(-c4nnn[nH]4)cc3n2C2CCC2)cc1
4: O=C(Nc1ccc(-c2ccsc2)cc1)C(=O)Nc1ccc(-c2oc3cc(F)c(-c4nnn[nH]4)cc3c2C2CCC2)cc1
# input Could you please order the items by IC50PTP/IC50SHP2 LYP, going from the lowest number to the highest? The labels, placed in the requested order, form the answer.
# output 1, 3, 4, 2

P: O=C(Nc1ccc(-c2cc3cc(F)c(-c4nnn[nH]4)cc3n2C2CCC2)cc1)C(=O)Nc1ccc(N2CCC3(CCOC3)CC2)cc1
Q: Cn1cc(-c2ccc(NC(=O)C(=O)Nc3ccc(-c4cc5cc(F)c(-c6noc(=O)[nH]6)cc5n4C4CCC4)cc3)cc2)cn1
# input # argmax over IC50PTP/IC50SHP2 LYP for candidates P and Q Mark your answer with the label of the selected entry.
# output Q

---

experimentalSystem: UniProt:P35236
Sequence (P35236 1-360): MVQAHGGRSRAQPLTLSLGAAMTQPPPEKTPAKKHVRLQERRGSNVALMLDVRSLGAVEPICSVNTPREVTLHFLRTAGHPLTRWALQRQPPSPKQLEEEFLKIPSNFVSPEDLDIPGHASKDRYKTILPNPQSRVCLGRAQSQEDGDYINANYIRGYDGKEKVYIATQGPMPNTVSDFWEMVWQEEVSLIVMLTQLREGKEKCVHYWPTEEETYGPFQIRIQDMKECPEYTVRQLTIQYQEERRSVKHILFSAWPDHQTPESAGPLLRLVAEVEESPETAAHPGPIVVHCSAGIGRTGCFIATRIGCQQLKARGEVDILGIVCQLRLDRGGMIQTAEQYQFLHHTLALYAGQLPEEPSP
valueType: IC50 (µM)

Recorded results for 3 compounds are shown here.
1) O=C(Nc1ccc(-c2cc3cc(F)c(-c4nnn[nH]4)cc3n2C2CCC2)cc1)C(=O)Nc1ccc(N2CC3COCC3C2)cc1 (stereo not drawn) [Example 114] :: 1.06
2) O=C(Nc1ccc(-c2cc3cc(F)c(-c4nnn[nH]4)cc3n2C2CCC2)cc1)C(=O)Nc1ccc(N2CCOCC2)cc1 [Example 47] :: 0.8
3) Cn1c(-c2cccc(NC(=O)C(=O)Nc3ccc(-c4ccsc4)cc3)c2)c(I)c2cc(C(=O)O)c(O)cc21 [Example 11a-1, reference compound] :: 1.03

I: O=C(Nc1ccc(-c2ccsc2)cc1)C(=O)Nc1ccc(-c2cc3cc(F)c(-c4nnn[nH]4)nc3n2C2CCC2)cc1 [Example 132]
II: Cn1cc(-c2ccc(NC(=O)C(=O)Nc3ccc(-c4cc5cc(F)c(-c6noc(=O)[nH]6)cc5n4C4CCC4)cc3)cc2)cn1 [Example 123]
# input For the pair I and II , which member has the lower IC50 number? Answer format: the label of the selected item.
# output II

---

experimentalSystem: LMWPTP (Homo sapiens, UniProt P24666)
Construct: made in house; host or cells: E. coli
Sequence (P24666 whole entry, species assumed): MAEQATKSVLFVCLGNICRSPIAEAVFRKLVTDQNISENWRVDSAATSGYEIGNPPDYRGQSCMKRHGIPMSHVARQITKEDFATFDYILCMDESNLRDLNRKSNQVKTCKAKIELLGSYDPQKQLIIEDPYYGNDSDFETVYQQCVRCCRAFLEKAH
experimentalProtocol: Tyrosine phosphatase selectivity (pNPP substrate), LMWPTP
Assay type: biochemical
experimentalConditions: selectivity ratio LMPTP* over SHP2
valueType: IC50PTP/IC50SHP2 LMPTP*

Sample records with IC50PTP/IC50SHP2 LMPTP*:
1. Cn1cc(-c2ccc(NC(=O)C(=O)Nc3ccc(-c4cc5cc(F)c(-c6nnc(C(F)(F)F)[nH]6)cc5n4C4CCC4)cc3)cc2)cn1 :: 27.9
2. Cn1c(-c2cccc(NC(=O)C(=O)Nc3ccc(-c4ccsc4)cc3)c2)c(I)c2cc(C(=O)O)c(O)cc21 [Example 11a-1, reference compound] :: 21.6
3. Cn1cc(-c2ccc(NC(=O)C(=O)Nc3ccc(-c4cc5cc(F)c(-c6noc(=O)[nH]6)cc5n4C4CCC4)cc3)cc2)cn1 :: 17.6

I: O=C(Nc1ccc(-c2ccsc2)cc1)C(=O)Nc1ccc(-c2oc3cc(F)c(-c4nnn[nH]4)cc3c2C2CCC2)cc1
II: CC1(n2c(-c3ccc(NC(=O)C(=O)Nc4ccc(N5CCC6(CCOC6)CC5)cc4)cc3)cc3cc(F)c(-c4nnn[nH]4)cc32)CCC1
# input Quick one: lower IC50PTP/IC50SHP2 LMPTP*, I or II ? Pick one; state its label.
# output II
(II: 7.7, I: 800)

---

experimentalSystem: PRL2 (Homo sapiens)
Construct: made in house; host or cells: E. coli
Sequence (Q12974 whole entry, species assumed): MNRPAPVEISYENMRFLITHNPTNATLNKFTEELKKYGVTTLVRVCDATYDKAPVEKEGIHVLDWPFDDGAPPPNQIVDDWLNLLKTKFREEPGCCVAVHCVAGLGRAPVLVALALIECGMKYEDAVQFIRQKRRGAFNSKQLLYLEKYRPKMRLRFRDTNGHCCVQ
experimentalProtocol: Tyrosine phosphatase selectivity (pNPP substrate), PRL2
Type: biochemical
experimentalConditions: selectivity ratio PRL2 over SHP2
valueType: IC50PTP/IC50SHP2 PRL2

1) O=C(Nc1ccc(-c2ccsc2)cc1)C(=O)Nc1ccc(-c2oc3cc(F)c(-c4nnn[nH]4)cc3c2C2CCC2)cc1 [Example 130] :: 2000
2) O=C(Nc1ccc(-c2ccsc2)cc1)C(=O)Nc1ccc(-c2cc3cc(F)c(-c4nnn[nH]4)cc3n2C2CCC2)cc1 [Example 4] :: 1724.1
3) O=C(Nc1ccc(-c2cc3cc(F)c(-c4nnn[nH]4)cc3n2C2CCC2)cc1)C(=O)Nc1ccc(N2CCOCC2)cc1 [Example 47] :: 1587
4) O=C(Nc1ccc(-c2ccsc2)cc1)C(=O)Nc1ccc(-c2cc3cnc(-c4nnn[nH]4)nc3n2C2CCC2)cc1 [Example 131] :: 1923.1
5) Cn1cc(-c2ccc(NC(=O)C(=O)Nc3ccc(-c4cc5cc(F)c(-c6noc(=O)[nH]6)cc5n4C4CCC4)cc3)cc2)cn1 [Example 123] :: 709.2
6) O=C(Nc1ccc(-c2cc3cc(F)c(-c4nnn[nH]4)cc3n2C2CCC2)cc1)C(=O)Nc1ccc(N2CC3COCC3C2)cc1 (stereo not drawn) [Example 114] :: 1388
7) O=C(Nc1ccc(-c2ccsc2)cc1)C(=O)Nc1ccc(-c2cc3ccc(-c4nnn[nH]4)nc3n2C2CCC2)cc1 [Example 129] :: 847.5
8) O=C(Nc1ccc(-c2oc3cc(F)c(-c4nnn[nH]4)cc3c2C2CCC2)cc1)C(=O)Nc1ccc(N2CCC3(CCOC3)CC2)cc1 [Example 125] :: 1960.8

A: O=C(Nc1ccc(-c2ccsc2)cc1)C(=O)Nc1ccc(-c2cc3cc(F)c(-c4nnn[nH]4)nc3n2C2CCC2)cc1 [Example 132]
B: O=C(Nc1ccc(-c2cc3cc(F)c(-c4nnn[nH]4)cc3n2C2CCC2)cc1)C(=O)Nc1ccc(N2CCC3(CCOC3)CC2)cc1 [Example 67]
C: CC1(n2c(-c3ccc(NC(=O)C(=O)Nc4ccc(N5CCC6(CCOC6)CC5)cc4)cc3)cc3cc(F)c(-c4nnn[nH]4)cc32)CCC1 [Example 68]
D: Cn1cc(-c2ccc(NC(=O)C(=O)Nc3ccc(-c4cc5cc(F)c(-c6nnc(C(F)(F)F)[nH]6)cc5n4C4CCC4)cc3)cc2)cn1 [Example 124]
# input Give the ascending ranking of the items by reported IC50PTP/IC50SHP2 PRL2. Answer with the labels in sequence, matching the requested order.
# output D, C, A, B
